Ref: paper PMC12013189

- study system: FAT domain of FAK (hFAK904-1052 WT) (Homo sapiens)
- Construct: Expression plasmids for FAT (hFAK904-1052 WT and mutants H14, H23 and H14-23); 6xHis (TEV cleavable) (N, cleaved yes); made in house; host or cells: E. coli BL21(DE3)
- Sequence (Q05397 904-1052): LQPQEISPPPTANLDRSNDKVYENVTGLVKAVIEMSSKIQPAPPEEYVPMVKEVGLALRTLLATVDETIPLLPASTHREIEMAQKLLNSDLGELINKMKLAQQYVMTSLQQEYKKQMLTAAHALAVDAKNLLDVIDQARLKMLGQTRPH
- assay explanation: Fluorescence anisotropy binding of FITC LD peptides to FAT-WT
- condition info: 25 nM FITC labelled peptide, 20 mM Tris pH7.5, 150 mM NaCl, 1mM TCEP, 22 °C, one-site binding model, 4 measurements, read-out: Apparent KD for FAT-WT
Ends that are not written are not given here.
endpoint name: Kd (nM)
Numbers only, in nM.

So what's the measured Kd for this one? SATRELDELMASLSD [LD4] 2100
